- Test system: NCI/ADR-RES ovarian
- assay-procedure: NCI-60 one-dose screen, 48 h
- measurement-conditions: 10 µM unless noted
About 83,000 compounds went through this panel and 20% of them were active in at least one assay; those are over-represented in the sample as a whole. Activity calls are given as the source filed them. How the source made its calls: active means growth percent below 10; inactive means the rest.
Entry note: the call must match one of yes (active), no (inactive)

Q. Assay result, entry Cc1ccc(C)n1/C=C/n1c(C)ccc1C — outcome?
A. no

Now for a further molecule.
Q. Returns: the outcome recorded for C=C1C(=O)O[C@H]2[C@H]1CC/C(COC(=O)c1cc3cc(F)ccc3[nH]1)=C\CC[C@@]1(C)O[C@@H]21 in this assay.
A. yes

###

- Test system: LOX IMVI melanoma
- assay-procedure: NCI-60 one-dose screen, 48 h
- measurement-conditions: 10 µM unless noted
The panel holds about 83,000 compounds, 20% with a hit somewhere; the sample as a whole holds those more often. Calls of active or inactive are those of the source. Rule for the calls: active = growth percent below 10; inactive = the rest.
Write down one outcome, taken from yes (1) = active, no (0) = inactive

Example cases with answers are listed next.
Q. Which outcome was entered for the molecule Cc1ccc(/C=C/C(=O)c2ccc(NC(=O)CSc3nc4c([nH]3)c(=O)n(C)c(=O)n4C)cc2)c(C)c1 in this test?
A. no (0)

Q. Ok, now Clc1ccc(-c2nc(-c3c[nH]c4ncccc34)cs2)cc1
A. no (0)

Q. Can you check O=C(CSc1nc2ccc([N+](=O)[O-])cc2[nH]1)Nc1ccc(Br)cc1 next?
A. no (0)

Q. Continue with O=C(CCCCl)NNc1nccc(Nc2ccc(S(=O)(=O)Nc3ccncc3)cc2)n1
A. no (0)

Q. Could you do the same for CC1(C)OC(=O)C(=Cc2cccc(Br)c2)C(=O)O1 , please?
A. no (0)

---
Q. Test call, this molecule: COc1cc2ncnc(Nc3ccc(F)c(Cl)c3)c2cc1OCC(=O)N1CCN(c2ccc(F)cc2)CC1
A. no (0)

Q. // next record COCC[C@H]1CCC/C=C/[C@@H]2C[C@H](O)C[C@H]2[C@H](O)/C=C/C(=O)O1
A. yes (1)

Q. Would you kindly repeat that for CCOC(=O)c1c(-c2ccc(Cl)cc2)c(C#N)c2c(C#N)c(N)nn2c1N ?
A. no (0)

Q. Proceed to Cn1c(=O)c2c(nc(NC3=NS(=O)(=O)c4ccccc43)n2Cc2ccccc2)n(C)c1=O
A. no (0)

Q. // query: C=CCN=C(N)SCCCCCCSC(N)=NCC=C
A. no (0)

###

# growth per record follows
- Test system: U251 CNS
- assay-procedure: NCI-60 one-dose screen, 48 h (100 = growth as untreated, 0 = no growth, -100 = all killed)
- measurement-conditions: 10 µM unless noted
Compounds without any hit were thinned out: in the full panel of roughly 83,000, 20% have a hit. The source made the active and inactive calls. How the source made its calls: active means growth percent below 10; inactive means the rest.

Worked cases, answers included:
Q. Requested read-out: growth. Entry: CC[C@H](Nc1nc(N)nc(C)c1C#N)c1nc2cccc(NCCCCCC(=O)NO)c2c(=O)n1-c1ccccc1
A. 61.3% (inactive)

Q. Entry to check: NC(=O)c1ccc(NC(=O)c2oc3ccccc3c2-c2cnn(-c3ccccc3)c2)cc1
A. -19.2% [50 µM] (active)

Q. Now consider Cc1c2cc[nH]c(=O)c2c(C)c2c1[nH]c1ccc(OC(=O)c3ccccc3)cc12 and answer again.
A. 29.2% (inactive)

Q. Lookup Cn1cc(/C=C2/C(=O)Nc3ccccc32)c2ccccc21
A. 78.3% (inactive)

Q. Try the compound O=C(CSc1nc2ccc([N+](=O)[O-])cc2[nH]1)Nc1ccc(Br)cc1
A. 36.3% (inactive)

The record that follows has no growth shown yet.
Q. Requested read-out: growth. Entry: N#C/C(=C\c1ccc(-c2ccc(Cl)cc2)o1)c1ccc(Cl)cc1
A. 21.6% (inactive)

###

- System: 786-0 renal
- assay-procedure: NCI-60 one-dose screen, 48 h (100 = growth as untreated, 0 = no growth, -100 = all killed)
- measurement-conditions: 10 µM unless noted
This is part of a sample that, as a whole, favours compounds with a hit. Of some 83,000 tested, about 20% had one in any assay.
Label Satisfied when growth < 70%; otherwise Not satisfied.

Solved entries:
Q. Item O=C(Nc1ccc(F)cc1)Nc1ccccc1CNc1nc(Nc2ccc(OCCN3CCCC3)cc2)ncc1Cl : growth beneath 70%, strictly?
A. Satisfied

Q. Now the compound CCOc1ccc(NC(=O)c2cc(OC)c(OC)c(OC)c2)cc1
A. Satisfied

Q. Further, for CC(C)(C)c1cc(C=Nc2cccc(C(F)(F)F)c2)c(O)c(C(C)(C)C)c1 ?
A. Not satisfied

Next:
Q. Does this compound meet the criterion growth < 70%? Cc1nc2sc(C(=O)Nc3cccc(Cl)c3)c(N)c2cc1C(O)c1ccccc1 (centres undefined)
A. Satisfied

Q. Another compound to look at: CC(C)c1ccc(C(=O)Nc2sc3cc(O)ccc3c2C#N)cc1
A. Satisfied

Q. Can you check C=CCn1c(SCC(=O)Nc2ccc(C(=O)/C=C/c3ccc(OC)cc3)cc2)nnc1-c1ccccc1 next?
A. Not satisfied

Q. And CCCCCCC(CCCC)COC(=O)c1ccc(Cl)cc1 (centres undefined) ?
A. Not satisfied

###

- Test system: SF-268 CNS
- assay-procedure: NCI-60 one-dose screen, 48 h (100 = growth as untreated, 0 = no growth, -100 = all killed)
- measurement-conditions: 10 µM unless noted
About 83,000 compounds went through this panel and 20% of them were active in at least one assay; those are over-represented in the sample as a whole.
Outcome label depends on growth relative to 90%: at/above gives True, below gives False.

Observe how each entry below is paired with its result.
Q. Is growth for CCCCSCC(=O)c1ccccc1 at or above 90%?
A. True

Q. Try the compound COc1ccc(/C=C/C(=O)c2ccc(Nc3nc(Nc4ccc(F)cc4)nc(Nc4ccc(Cl)cc4)n3)cc2)cc1
A. True

Q. Moving on to the next compound: CCN1CCN(CC(=O)Nc2nc3ccc(NCc4ccc(Br)cc4)cc3s2)CC1
A. False

Please look at the following compound next.
Q. Exam item: decide whether the reported growth for COc1ccc(/C=C/C(=O)c2cc3c(N)c(C(=O)Nc4ccc(OC)cc4)sc3nc2C)cc1 is at least 90%.
A. False

###

- Tested on: MCF7 breast
- assay-procedure: NCI-60 one-dose screen, 48 h (100 = growth as untreated, 0 = no growth, -100 = all killed)
- measurement-conditions: 10 µM unless noted
The panel holds about 83,000 compounds, 20% with a hit somewhere; the sample as a whole holds those more often.
readout-name: growth (%)
Expressed in %, but write only the number.

Here's what some known entries look like.
Q. If you can, please state the reported growth value of COC(=O)/C=C1/SC(=Nc2cccc(Cl)c2)N(CCc2c[nH]c3ccc(O)cc23)C1=O .
A. 15.9

Q. Also check COCC[C@H]1CCC/C=C/[C@@H]2C[C@H](O)C[C@H]2[C@H](O)/C=C/C(=O)O1
A. -8.53

***
Q. Item CC1(C)OC(=O)C(=Cc2cccc(Br)c2)C(=O)O1 has what recorded growth?
A. 102

Q. How about Brc1ccc(-c2cnc3nonc3n2)cc1 ?
A. 28.2

Q. Okay, and Cn1cc(-c2csc(-c3cn(C(=O)OC(C)(C)C)c4ccccc34)n2)c2ccnc(Cl)c21 ?
A. 33.3

###

- Test system: CAKI-1 renal
- assay-procedure: NCI-60 one-dose screen, 48 h (100 = growth as untreated, 0 = no growth, -100 = all killed)
- measurement-conditions: 10 µM unless noted
About 83,000 compounds went through this panel and 20% of them were active in at least one assay; those are over-represented in the sample as a whole.
Reported growth by item:
The figure you give is taken to be in %; do not add the unit.

Q. Request: growth, test system CAKI-1 renal, entry COc1ccc(C(c2cc(OC)c(OC)c(OC)c2)N2CCN(Cc3ccccc3)CC2)cc1 (stereo not given)
A. 66.7

Q. Similarly, O=c1[nH]c(-c2ccc(Cl)cc2)cn1-c1ccc(-n2cc(-c3ccc(Cl)cc3)[nH]c2=O)cc1 ?
A. 65.1

Q. Can you check CCN(CC)CCCC(C)Nc1ccc2cc(OC)ccc2n1 (stereo not given) next?
A. 101

Q. Also Cc1c2cnccc2c(C)c2c1c1cc(C3OCCCO3)ccc1n2C ?
A. 8.13

Q. Please answer likewise for COc1ccc2c(O)c(/C=C3\N=Nc4ccccc43)oc2c1C[C@H]1CCNC[C@H]1F
A. 31

###

- System: SW-620 colon
- assay-procedure: NCI-60 one-dose screen, 48 h (100 = growth as untreated, 0 = no growth, -100 = all killed)
- measurement-conditions: 10 µM unless noted
This is part of a sample that, as a whole, favours compounds with a hit. Of some 83,000 tested, about 20% had one in any assay.
readout-name: growth (%)
State the answer as a number, implicitly in %.

// known answers, use as guide
Q. Please give the measured growth for this molecule: COc1ccc2c(c1)c(-c1cc(-c3cn(C)c4ccc(OC)cc34)on1)cn2C
A. 91.8

Q. Next: Nc1ncnc2c1c(-c1ccc(Oc3ccccc3)cc1)nn2CC1SSCC1O (stereo not given)
A. 78.7

Q. What about this molecule? COc1cccc(OC)c1Oc1c(-c2nc3ccccc3s2)c(C)nn1-c1ccccc1
A. 88

Q. Also need COc1ccc(NC(=O)c2sc3nc(C)c(C(O)c4ccccc4)cc3c2N)cc1 (stereo not given) , thanks.
A. 25.4

Q. Now the same for CC1COCC(C)N1C1=C(Cl)C(=O)c2ccccc2C1=O (stereo not given)
A. 42.6

Q. And then Cc1cccc(NC(=O)CSc2nc3ccc([N+](=O)[O-])cc3[nH]2)c1 , what is it?
A. 97.9

Q. # iterate: O=C1/C(=C/c2ccc(C(F)(F)F)cc2)COc2ccc(O)cc21
A. 1.98

Q. // same read-out, input: CCOC(=O)c1ccc2c(c1)c1c(C)c3ccncc3c(C)c1n2C
A. 0.329

Q. Same read-out for CC(=O)c1c(Nc2ccc(F)c(F)c2F)[nH]c2c(F)cc(F)cc2c1=O ?
A. 7.98

Continue with the next molecule.
Q. Returns the measured growth for the input molecule. Input: COc1ccc(OC)c(Nc2nnc(-c3ccc(Cl)cc3)o2)c1
A. 86.2
